Molecular target: human α7 nAchR (Homo sapiens (Human))
Sequence (P36544 23-502): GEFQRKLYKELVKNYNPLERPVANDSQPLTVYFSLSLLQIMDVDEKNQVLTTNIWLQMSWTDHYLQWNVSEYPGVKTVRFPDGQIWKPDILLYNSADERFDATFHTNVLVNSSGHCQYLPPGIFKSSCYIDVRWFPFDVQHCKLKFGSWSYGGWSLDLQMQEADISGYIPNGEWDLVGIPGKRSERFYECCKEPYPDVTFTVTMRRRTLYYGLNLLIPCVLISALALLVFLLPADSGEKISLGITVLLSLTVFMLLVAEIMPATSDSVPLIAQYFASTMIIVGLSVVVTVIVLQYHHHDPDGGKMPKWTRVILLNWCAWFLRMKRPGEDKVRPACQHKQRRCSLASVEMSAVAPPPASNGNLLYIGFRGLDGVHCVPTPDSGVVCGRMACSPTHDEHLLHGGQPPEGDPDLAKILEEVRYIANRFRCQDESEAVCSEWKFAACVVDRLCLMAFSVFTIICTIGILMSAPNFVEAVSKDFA
Test: Human α7 nicotinic acetylcholine receptor [Ca2+]i assay (PAM, Ca2+ fluorometry)
Conditions: Flp-In 293 cells expressing human α7 nAchR and human RIC-3; in presence of saturating agonist (mostly PNU-282987, 1 μM)
Method: Biological Activity Human α7 Nicotinic Acetylcholine Receptor [Ca^2+]i Assay Cells: Flp-In 293 cells stably expressing human α7 nAchR and human RIC-3 (α7 cells, generated in house.) […] α7 cells stably expressing human α7 nAchR were cultured in the medium detailed above, and were split twice a week. […] Baseline and agonist-evoked [Ca2+]i-changes were monitored with FlexStation II (Molecular Devices, Sunnyvale, Calif.), a plate reader fluorometer with integrated 8-channel fluid addition capability. […]
Returns: string. Value is criterion met if measured EC50 is below 200 nM, and criterion not met if it is greater than or equal to it.

Reference set, count: 6
| Molecule | Class label |
| --- | --- |
| CCN1C(C(=O)Nc2ccnc(C(F)(F)F)c2)=CC([C@H]2CC[C@H](C(F)(F)F)CC2)=NS1(=O)=O [Example 88] | criterion not met |
| CCCN1C(C(=O)Nc2cccc(C(F)(F)F)n2)=CC(c2ccc(OC)c(C)c2)=NS1(=O)=O [Example 99] | criterion met |
| CCCN1C(C(=O)Nc2cccc(C(F)(F)F)c2)=CC(c2ccc(OC)c(OC)c2)=NS1(=O)=O [Example 94] | criterion not met |
| COc1ccc(C2=NS(=O)(=O)N(C)C(C(=O)Nc3cccc(C(F)(F)F)c3)=C2)cc1Cl [Example 26] | criterion not met |
| COc1ccc(C2=NS(=O)(=O)N(C(C)C)C(C(=O)Nc3cccc(Cl)c3)=C2)cc1OC [Example 92] | criterion not met |
| COc1ccc(C2=NS(=O)(=O)N(C)C(C(=O)Nc3cccc(F)c3)=C2)cc1OC [Example 19] | criterion not met |

Please let me know if COc1ccc(C2=NS(=O)(=O)N(CC3CC3)C(C(=O)Nc3cccc(C(F)(F)F)c3)=C2)cc1OC [Example 102] shows EC50 below 200 nM.
criterion not met

Strictly below 200 nM in EC50? C=CCN1C(C(=O)Nc2cccc(C(F)(F)F)n2)=CC(c2ccc(OC)c(OC)c2)=NS1(=O)=O [Example 107]
criterion met

Threshold test, EC50 < 200 nM: CCN1C(C(=O)Nc2cncc(C(F)(F)F)n2)=CC(C2CCC(F)(F)CC2)=NS1(=O)=O [Example 69]
criterion not met

EC50 strictly < 200 nM for this molecule? CCN1C(C(=O)Nc2cccc(C(F)(F)F)c2F)=CC([C@H]2CC[C@H](C(F)(F)F)CC2)=NS1(=O)=O [Example 57]
criterion not met

Is 200 nM strictly greater than the molecule's reported EC50? molecule: COc1ccc(C2=NS(=O)(=O)N(CC(F)(F)F)C(C(=O)Nc3cccc(C(F)(F)F)c3)=C2)cc1OC [Example 118]
criterion not met

Lab log: compare recorded EC50 with 200 nM; is it strictly lower for O=C(Nc1cncc(F)n1)C1=CC([C@H]2CC[C@H](C(F)(F)F)CC2)=NS(=O)(=O)N1CC1CC1 [Example 139] ?
criterion met

In the record for CCN1C(C(=O)Nc2cccc(C(F)(F)F)n2)=CC(c2ccc(OC)c(OC)c2)=NS1(=O)=O [Example 33] , is EC50 less than 200 nM?
criterion met

For CCN1C(C(=O)Nc2cccc(OC)c2)=CC(c2ccc(OC)c(C)c2)=NS1(=O)=O [Example 42] , is the recorded EC50 below the cut-off of 200 nM?
criterion met

Lab note: EC50 threshold 200 nM. Does this molecule come in strictly under it? CC(C)N1C(C(=O)Nc2ccnc(C(F)(F)F)n2)=CC([C@H]2CC[C@H](C(F)(F)F)CC2)=NS1(=O)=O [Example 136]
criterion met
